Reference source: PubChem BioAssay

- test-name: serotonin-gated TRPC4 signal block – cell-based, second counter screen, HEK293 TRPC4/5HT1a, Fluo-4, counter-screen for TRPC4 inhibitor project, confirmation (AID 434978);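 for Outcome: serotonin given first at submaximal then at maximal dose after compound preincubation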
- assay-conditions: Fluo-4 calcium flux, at 10 µM, serotonin added to trigger calcium flux
Calls of active or inactive are those of the source.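 Rule for the calls: active = primary screen active whose calcium signal fell more than 3 SD beyond the full-serotonin control mean in both duplicate plates; inactive = the rest.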
Valid outcomes are listed here; reply with one: Yes for active, No for inactive

Outcome? CCC(=O)NC(C)C(c1cccs1)N1CCN(c2ccccc2)CC1 (centres undefined)
No

Outcome? O=[N+]([O-])c1ccc2c(c1)C=C1CCCCC1(N1CCCC1)O2 (centres undefined)
No

Outcome? `c1ccc2c3c([nH]c2c1)CCNC3`
No

Outcome? `COc1ccc(Br)cc1CN1CCC(N2CCCC2)CC1`
No

Outcome? `Cc1cc(-c2cn3ccccc3n2)c(C)n1-c1ccccc1`
No

Outcome? `CCN1CCN(c2ccc(S(=O)(=O)N3CCCCC3)cc2NC(=O)c2cccc(OC(F)F)c2)CC1`
No

Outcome? `CCN(CC)CC(=O)Nc1ccccc1SCC(=O)Nc1ccsc1C(=O)OC`
No

Outcome? `Cc1cc(-c2csc3ncnc(N4CCN(C)CC4)c23)cc(C)c1C`
Yes

Outcome? `CNc1oc(-c2ccccc2Cl)nc1P(=O)(c1ccccc1)c1ccccc1`
No

Outcome? `Nc1cc(C(F)(F)F)ccc1Nc1ccccc1`
Yes

Outcome? `O=C(Nc1ccc(Cl)c(Cl)c1)N(CCCN1CCOCC1)Cc1cccs1`
No

Outcome? `O=C(C[n+]1cccc(CNC(=O)c2ccc(OC(F)F)cc2)c1)Nc1ccc(SC(F)F)cc1`
No

Outcome? `COc1ccc(C(=O)NNC(=O)CN2CCC(n3nnc4cc(C)ccc43)CC2)cc1`
No

Outcome? COC(=O)NCC(c1ccc2c(c1)OCO2)N1CCN(c2ccc(OC)cc2)CC1 (centres undefined)
No

* * *

- system-name: Short transient receptor potential channel 6 (Mus musculus)
- test-name: positive modulators of mouse TRPC6 channel – HEK293 cells, membrane potential dye, duplicate, selectivity assay for TRPC4 potentiator project, confirmation (AID 434952)
- assay-conditions: HEK293 TRPC6, membrane potential dye fluorescence, at 10 µM, maximal acetylcholine added after compound
Calls of active or inactive are those of the source.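 The calls were made as follows: active = compound raising the membrane signal above positive-control mean plus 3 SD in both repeats, and a primary screen hit; inactive = the rest.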
Valid outcomes are listed here; reply with one: active, inactive

Outcome? O=C(COC(=O)c1cc2c(s1)CCCCC2)NC1CCS(=O)(=O)C1 (stereo unspecified)
inactive

Outcome? CC(=O)N1CC(c2ccccc2)C(c2ccc(Cl)cc2)=N1 (stereo unspecified)
inactive

Outcome? `Cc1cc([N+](=O)[O-])ccc1NCc1ccco1`
inactive

Outcome? `Cc1cccc(Cn2c(C(C)(C)C)cc3cccnc32)c1`
inactive

Outcome? `O=C1Cc2ccccc2Sc2c(OCCN3CCCCC3)cccc21`
inactive

Outcome? `CN1/C(=C\C(=O)C[n+]2ccc3ccccc3c2)C(C)(C)c2ccccc21`
inactive

Outcome? `CNc1nc(NCc2ccccc2)c2ccccc2n1`
inactive

Outcome? `COc1ccc(Cc2noc(CN(C)CC3CCN(Cc4ccccc4)CC3)n2)cc1OC`
inactive

Outcome? `CC(=NCCN1CCN(C(C)=C2C(=O)c3ccccc3C2=O)CC1)C1=C(O)CC(C)(C)CC1=O`
inactive

Outcome? `Cc1cc(NCc2ccccc2)nc(N2CCOCC2)n1`
inactive

Outcome? `c1ccc(Nc2c3c(nc4ccccc24)CCC3)cc1`
inactive

Outcome? `COc1ccc(C(=O)CN2CCN(CCN3C(=O)c4cccc5cccc(c45)C3=O)CC2)cc1`
inactive

Outcome? `CC(C)(C)NC(=S)N/N=C\c1ccc(-c2ccc([N+](=O)[O-])cc2)o1`
active

Outcome? O=[N+]([O-])c1cc(C(F)(F)F)ccc1NC1CCN(Cc2ccccc2)C1 (stereo unspecified)
inactive

Outcome? CC(=O)c1c(O)c(C)c(O)c2c1OC1=CC(=O)C(C(C)=O)C(=O)[C@@]12C (stereo partly specified)
inactive

Outcome? Cc1ccc(-n2cccn2)c(CN2CCCC(C(=O)c3ccc4c(c3)OCO4)C2)c1 (stereo unspecified)
inactive

* * *

- Tested on: transient receptor potential cation channel C4 beta (TRPC4), mouse
- test-name: TRPC4 cation channel opening, second retest – cell-based, second round, Fluo4, HEK293 TRPC4beta/mu-opioid, 1 µM, confirmation (AID 2461)
- assay-conditions: Fluo4 calcium fluorescence, at 1 µM
Active and inactive are the calls of the source.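 Rule for the calls: active = primary screen active and over 50% activation in each of two duplicate runs; inactive = the rest.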
Valid outcomes are listed here; reply with one: TRUE (active), FALSE (inactive)

Outcome? `CCOc1cc(/C=C(\C#N)C(=O)Nc2cccc(C(=O)O)c2)cc(Br)c1OC(=O)c1ccc(OC)cc1`
FALSE

Outcome? `CSc1nsc(NC(=O)Cc2ccccc2)n1`
FALSE

Outcome? `CCCn1c(N)c(C(=O)CSc2n[nH]c(-c3ccc(C)cc3)n2)c(=O)[nH]c1=O`
FALSE

Outcome? `CCCOc1cccc(C(=O)NCCNC(=O)c2ccco2)c1`
FALSE

Outcome? `CCCN(CCC)CCCNC(=O)c1cc2c(-c3ccc(OC)c(OC)c3)nn(C)c2s1`
TRUE

Outcome? CC1CC(C)CN(CCCNC(=O)c2ccc3c(c2)N(Cc2ccccc2)C(=O)c2ccccc2S3=O)C1 (stereo not given)
TRUE

Outcome? CCOC(=O)C(=NC1CCS(=O)(=O)C1)NNc1ccccc1Cl (stereo not given)
FALSE

Outcome? `C1CCN(c2nc(N3CCCCC3)nc(N3CCNCC3)n2)CC1`
FALSE

Outcome? `CCCOc1ccc(Br)cc1/C=N/O`
FALSE

Outcome? `Cn1c(=O)n(CCCO)c(=O)c2c1nc1n2CCCN1Cc1ccccc1`
FALSE

Outcome? `CN(C)CCNC(=O)c1c(NC(=O)c2ccccc2)sc2c1CCCC2`
FALSE

Outcome? Cc1ccn(CC(=O)NC2CCCN(Cc3ccc(CC(C)C)cc3)C2)n1 (stereo not given)
FALSE

Outcome? `CCc1c(C(=O)N2CCCN(C)CC2)csc1C`
FALSE

Outcome? `OCCNc1nc(NCc2ccccc2)c2ccccc2n1`
FALSE

Outcome? `COc1ccc(OCCN(C)Cc2c(O)ccc3ccccc23)cc1`
FALSE

* * *

- Test system: TRPC4 (transient receptor potential cation channel C4 beta), mouse
- test-name: potentiation of DAMGO EC20 TRPC4 response – cell-based, second round, Fluo-4, HEK293 TRPC4beta/mu-opioid, 1 µM, confirmation (AID 2554)
- assay-conditions: DAMGO EC20, Fluo-4 calcium flux, at 1 µM
Calls of active or inactive are those of the source.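 Rule for the calls: active = primary screen hit whose fluorescence ratio, in both repeats, exceeds the weak agonist control mean by 3 SD; inactive = the rest.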
Valid outcomes are listed here; reply with one: 1 (yes) = active, 0 (no) = inactive

Outcome? `CCCCc1nc(N2CCOCC2)c(C#N)c2c1CCCC2`
0 (no)

Outcome? Cc1c(Cl)cccc1NC(=S)NCC(c1cccnc1)N(C)C (stereo unspecified)
0 (no)

Outcome? `Cc1ccc(Cl)cc1N1CCN(C(=O)c2cccc3c(=O)c(C)c(-c4ccccc4)oc23)CC1`
0 (no)

Outcome? `CCOc1ccc(S(=O)(=O)N2CCN(C(=S)NC3CC3)CC2)cc1`
0 (no)

Outcome? `CCOC(=O)c1sc2nc(CC(=O)OC)nc(NCc3ccc(F)cc3)c2c1C`
0 (no)

Outcome? `CCOC(=O)C1(CCc2ccccc2)CCN(Cc2ccccn2)CC1`
0 (no)

Outcome? CN(C)C(CNC(=O)Nc1cccc(Cl)c1)c1cccnc1 (stereo unspecified)
0 (no)

Outcome? `O=C(Nc1ccc(Cl)cc1)N1CCC(c2nc(-c3cccs3)no2)CC1`
0 (no)

Outcome? `Cc1ncsc1CCOC(=O)c1cccc([N+](=O)[O-])c1`
0 (no)

Outcome? `CN(C)CCNC(=O)c1scc2c1CCCC2`
0 (no)

Outcome? `CCCCCCCCCC[n+]1cccc2c3ccccc3ccc21`
0 (no)

Outcome? `Cc1ccc(C(=O)C[n+]2cccc3cc(C)ccc32)cc1`
0 (no)

Outcome? `OCCN(CCO)c1ncnc2c1sc1nc(N3CCOCC3)c3c(c12)CCCC3`
0 (no)

Outcome? CC(Oc1ccc(Cl)cc1Cl)C(=O)N(C)c1ccccc1 (stereo unspecified)
0 (no)

Outcome? NC(=O)C1CCCN(CCc2ccccc2)C1 (stereo unspecified)
0 (no)

Outcome? `CC1CCN(c2nc(Cl)nc(Nc3ccc([N+](=O)[O-])cc3)n2)CC1`
0 (no)

Outcome? `CCN(CCO)Cc1csc2ccc(Br)cc12`
1 (yes)

Outcome? `Cc1ccccc1C(=O)NNC(=S)NC(=O)COc1ccccc1`
0 (no)

Outcome? `COC1=C(C)C(O)=C(C(=O)/C=C/c2ccccc2)C(=O)C1(C)C`
0 (no)

Outcome? `Cc1cccc2nc(CSc3ccc(Cl)cc3)cn12`
0 (no)

Outcome? CC(C)CCOc1ccc(C(=O)NCC(c2ccco2)N(C)C)cc1 (stereo unspecified)
0 (no)

* * *

- Test system: TRPC4 (mouse), co-expressed with 5HT1a in HEK293
- test-name: enhancement of serotonin-evoked TRPC4 response – cell-based, second counter screen, HEK293 TRPC4/5HT1a, Fluo-4, counter-screen for TRPC4 potentiator project, confirmation (AID 434979)
- assay-conditions: Fluo-4 calcium flux, at 10 µM, serotonin added at its EC20 dose
Activity calls are given as the source filed them.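 Rule for the calls: active = signal rise over 3 SD above mean of control wells given weak agonist, in both repeats and first screen; inactive = the rest.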
Valid outcomes are listed here; reply with one: yes = active, no = inactive

Outcome? `S=C(NCCc1ccccn1)NC1CCCCC1`
no

Outcome? CC1CCCN(c2c3c(nc4ccccc24)CCCC3)C1 (stereo not drawn)
no

Outcome? `Cc1n[nH]c(C)c1CCCCOc1ccccc1F`
no

Outcome? OC1(c2cccs2)CN(c2ccc(Cl)cc2)C2=[N+]1CCCC2 (stereo not drawn)
no

Outcome? `COc1ccc(OC)c(Nc2c3c(nc4ccccc24)CCC3)c1`
no

Outcome? `CC(C)(C)[C@H]1C=C(C(=O)NCc2ccccc2)O[C@@H](OCc2ccc(CO)cc2)C1`
no

Outcome? Cc1ccccc1N(C(=O)c1snc(C(N)=O)c1N)C(C(=O)NC1CCCC1)c1ccco1 (stereo not drawn)
no

Outcome? CC(=O)C1=C(O)C(=O)N(Cc2ccccc2)C1c1ccc([N+](=O)[O-])cc1 (stereo not drawn)
no

Outcome? `CCN1CCN(c2ccc(S(=O)(=O)N3CCOCC3)cc2NC(=O)/C=C/c2ccc(OC)cc2OC)CC1`
no

Outcome? CC1(c2ccccc2)CC(C)(C)N(C(=O)C2CCCO2)c2ccccc21 (stereo not drawn)
no

Outcome? `c1ccc(Cn2c(NCc3ccco3)nc3ccccc32)cc1`
no

Outcome? `CCOc1cc(O)c(-c2[nH]ncc2-c2nc(C)cs2)cc1CC`
yes

Outcome? `COCCn1c(SCC(=O)Nc2ccccc2OC)nc2c([nH]c3ccccc32)c1=O`
no
